Target: Cytochrome P450 2D6 (Homo sapiens) (UniProt P10635)
Sequence (P10635 whole entry, looked up): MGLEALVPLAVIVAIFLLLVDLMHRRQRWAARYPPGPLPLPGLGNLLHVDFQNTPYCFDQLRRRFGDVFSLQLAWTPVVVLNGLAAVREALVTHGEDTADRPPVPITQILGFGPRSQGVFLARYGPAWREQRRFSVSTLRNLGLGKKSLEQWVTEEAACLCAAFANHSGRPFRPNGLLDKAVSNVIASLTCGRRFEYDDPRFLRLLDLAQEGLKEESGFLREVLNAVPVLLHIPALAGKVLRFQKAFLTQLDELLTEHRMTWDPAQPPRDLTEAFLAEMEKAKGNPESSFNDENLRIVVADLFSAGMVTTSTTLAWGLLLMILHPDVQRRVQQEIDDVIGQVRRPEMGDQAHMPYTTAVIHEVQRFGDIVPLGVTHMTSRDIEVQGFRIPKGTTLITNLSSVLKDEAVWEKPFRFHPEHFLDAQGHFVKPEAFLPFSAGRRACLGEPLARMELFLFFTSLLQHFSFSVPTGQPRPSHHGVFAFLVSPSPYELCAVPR
Test: Cytochrome P450 Family 2 Subfamily D Member 6 (CYP2D6) small molecule antagonists: luciferase reporter qHTS assay (AID 1671196); further: nearly all actives have a fitted effect of over 50% in size
Settings: P450-Glo CYP2D6 enzyme assay, luciferin luminescence, 1 h; series mostly up to 115 µM
Results filed as inconclusive are left out. Activity calls are given as the source filed them. The call rests on the fitted dose curve; in most records, active means well fitted inhibition curve with a large enough effect in the repeat runs; inconclusive means weak or mixed curves; inactive means no such curve, though single readings can be large or run the other way.
Your answer must be one of the following: active, inactive

Field: example entries. Status: answers known.
CCN(CC)CCOC(=O)C1(c2ccccc2)CCCC1
active
Cc1cccc(OCCOc2cccc(C)c2)c1
inactive
Cc1ccc(C(C)c2ccc(C)c(C)c2)cc1C
inactive
CC(=O)c1c(C)c([N+](=O)[O-])c(C(C)(C)C)c([N+](=O)[O-])c1C
inactive

# input What classification did NC1CCN(c2nc3c(cc2F)c(=O)c(C(=O)O)cn3-c2ccc(F)cc2F)C1 (configuration not stated) end up with in this test?
# output inactive

# input What classification did CC(=O)NCCCS(=O)(=O)O end up with in this test?
# output inactive

# input What classification did CC(C(=O)O)c1ccc(C(=O)c2ccccc2)s1 (configuration not stated) end up with in this test?
# output inactive

# input What classification did O=[N+]([O-])c1cccc(Cl)c1Cl end up with in this test?
# output inactive

# input What classification did C=CC(C)(CCC=C(C)C)OC(=O)c1ccccc1 (configuration not stated) end up with in this test?
# output inactive

---

Assay: qHTS assay for small molecules that induce genotoxicity in human embryonic kidney cells expressing luciferase-tagged ATAD5 - cell viability (AID 651634); further: on the % scale 0 is the no-effect control and ±100 the full control effect; nearly all actives have a fitted effect of over 25% in size
Conditions: HEK293T ATAD5-luc cells viability, CellTiter-Fluor, 15.5 h; series mostly up to 83.3 µM
Results filed as inconclusive are left out. Activity calls are given as the source filed them. The call rests on the fitted dose curve.
reported_property: Potency

These recorded examples may help you get a feel for the data.
O=[N+]([O-])c1cc[n+]([O-])cc1
inactive
CCCCCCCCCCCCCCCBr
inactive
CC1=CCC(C(C)C)C=C1 (stereo unspecified)
inactive
CCCCOCCOCCOCCOCCO
inactive
O=C(CC(=O)c1ccccc1)c1ccccc1
inactive
CC(C)c1ccccc1C(C)C
inactive
OCC1CC2CC1C1CCC(CO)C21 (stereo unspecified)
inactive
O=C(O)COC(=O)Cc1ccccc1Nc1c(Cl)cccc1Cl
inactive
S=C(S)NCCNC(=S)S
inactive
CNCC[C@@H](Oc1ccccc1C)c1ccccc1
inactive

# input Given OC(CCN1CCCCC1)(c1ccccc1)C1CCCCC1 (stereo unspecified) , state its recorded Potency.
# output inactive

# input Given Cc1ccc(C(N)=O)cc1N , state its recorded Potency.
# output inactive

---

Assay: qHTS assay for identifying genotoxic compounds that show differential cytotoxicity against isogenic chicken DT40 cell lines with known DNA damage response pathways - wild type cell line (AID 743012); further: nearly all actives have a fitted effect of over 60% in size
Conditions: DT40 wild type chicken cells viability, CellTiter-Glo, 40 h; series mostly up to 68.4 µM
Records with an inconclusive call do not appear. Activity calls are given as the source filed them. The call rests on the fitted dose curve; in most records, active means well fitted cell-killing curve with a large enough effect in the repeat runs; inconclusive means weak or mixed curves, or effect the other way; inactive means no such curve, though single readings can be large or run the other way.
Your answer must be one of the following: t for active, f for inactive

COc1ccccc1OC(=O)Oc1ccccc1OC
f
N=C(N=C(N)N)N1CCOCC1
f
CNS(=O)(=O)Cc1ccc2[nH]cc(CCN(C)C)c2c1
f
CCOc1ccc2[nH]cc(C(=O)NCc3ccccc3)c(=O)c2n1
t
CCOC(=O)C1=NN(c2ccccc2)C(=O)C1
f
O=C(c1ccc(O)cc1)c1ccc(O)cc1
f

# input What classification did CCOC(=O)C1=C(C)NC(C)=C(C(=O)OC)C1c1cccc([N+](=O)[O-])c1 (stereo not drawn) end up with in this test?
# output t

# input What classification did CCN1CCC[C@H]1CNC(=O)c1c(OC)ccc(Br)c1OC end up with in this test?
# output f

---

Assay: A CellTox Green Cytotoxicity Assay to monitor cytotoxicity in HEK293 cells - 8 hour (AID 1224884); further: on the % scale 0 is the no-effect control and ±100 the full control effect; nearly all actives have a fitted effect of over 35% in size
Conditions: CellTox Green fluorescence; series mostly up to 76.8 µM
Results filed as inconclusive are left out. Active and inactive are the calls of the source. Calls come from the whole dose curve; as a rule, active = well fitted activation curve with a large enough effect in the repeat runs; inconclusive = weak or mixed curves; inactive = flat fitted curve, though single readings scatter.
reported_property: cytotoxicity increase

These recorded examples may help you get a feel for the data.
CCN(CC)CCNC(C(=O)OCCC(C)C)c1ccccc1 (configuration not stated)
inactive
COC(Cc1ccccc1)OC
inactive
CNCC[C@@H](Oc1ccccc1C)c1ccccc1
inactive
CC(C)(C)c1cc(CCC(=O)OCC(COC(=O)CCc2cc(C(C)(C)C)c(O)c(C(C)(C)C)c2)(COC(=O)CCc2cc(C(C)(C)C)c(O)c(C(C)(C)C)c2)COC(=O)CCc2cc(C(C)(C)C)c(O)c(C(C)(C)C)c2)cc(C(C)(C)C)c1O
inactive
CCCC(C)C
inactive

# input Given CC(=O)/C(C)=C/C1C(C)=CCCC1(C)C (configuration not stated) , state its recorded cytotoxicity increase.
# output inactive

# input Given O=C(c1ccc(O)cc1)c1ccc(O)cc1 , state its recorded cytotoxicity increase.
# output inactive

# input Given C=CC(=O)OCC(C)OCC(C)OCC(C)OC(=O)C=C (configuration not stated) , state its recorded cytotoxicity increase.
# output inactive

---

Biological target: Androgen receptor (Homo sapiens) (UniProt P10275)
Sequence (P10275 whole entry, looked up): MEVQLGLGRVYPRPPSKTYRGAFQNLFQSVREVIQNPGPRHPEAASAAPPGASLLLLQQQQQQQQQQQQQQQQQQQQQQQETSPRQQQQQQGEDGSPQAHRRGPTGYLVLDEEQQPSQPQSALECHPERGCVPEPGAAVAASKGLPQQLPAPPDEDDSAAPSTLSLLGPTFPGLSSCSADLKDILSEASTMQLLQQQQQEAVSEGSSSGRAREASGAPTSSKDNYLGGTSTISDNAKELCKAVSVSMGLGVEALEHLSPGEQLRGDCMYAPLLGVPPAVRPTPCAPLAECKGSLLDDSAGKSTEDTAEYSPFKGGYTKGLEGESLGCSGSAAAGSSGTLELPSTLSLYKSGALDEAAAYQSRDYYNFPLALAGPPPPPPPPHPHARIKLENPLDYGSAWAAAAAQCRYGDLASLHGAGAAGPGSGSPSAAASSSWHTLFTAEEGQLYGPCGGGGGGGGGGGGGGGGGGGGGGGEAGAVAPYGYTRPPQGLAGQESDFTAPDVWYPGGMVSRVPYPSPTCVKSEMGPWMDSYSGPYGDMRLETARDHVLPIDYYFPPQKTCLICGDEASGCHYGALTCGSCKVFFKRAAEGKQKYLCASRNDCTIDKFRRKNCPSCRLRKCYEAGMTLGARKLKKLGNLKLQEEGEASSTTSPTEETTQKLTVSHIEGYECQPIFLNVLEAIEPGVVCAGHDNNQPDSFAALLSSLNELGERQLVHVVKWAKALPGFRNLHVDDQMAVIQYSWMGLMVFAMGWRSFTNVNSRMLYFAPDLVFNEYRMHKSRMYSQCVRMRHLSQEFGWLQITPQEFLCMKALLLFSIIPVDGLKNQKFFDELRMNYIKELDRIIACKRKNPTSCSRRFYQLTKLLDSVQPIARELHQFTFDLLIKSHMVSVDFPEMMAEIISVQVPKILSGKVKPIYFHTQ
Test: qHTS assay to identify small molecule agonists of the androgen receptor (AR) signaling pathway using the MDA cell line (AID 743040; further: nearly all actives have a fitted effect of over 20% in size)
Settings: MDA-kb2 AR-luc cells, MMTV luciferase, 16 h; series mostly up to 70.3 µM
Activity calls are given as the source filed them. Calls follow the shape of the dose curve; as a rule, active = well fitted activation curve with a large enough effect in the repeat runs; inconclusive = weak or mixed curves; inactive = flat fitted curve, though single readings scatter.
Your answer must be one of the following: Y (active), N (inactive)

CC(C(=O)O)c1ccc(C(=O)c2ccccc2)s1 (stereo not drawn)
N
C1CCC2OC2C1 (stereo not drawn)
N
C=C(C)C(=O)OCCOc1ccccc1
N
COc1ccc(C(C)=O)cc1
N
Nc1ccc(C(=O)Nc2ccccc2N)cc1
Y

# input What classification did COCCOCCOCCOCCOC end up with in this test?
# output N

# input What classification did NCCCN(CCO)CCO end up with in this test?
# output N

# input What classification did O=C(CCN1CCN2CCCC2C1)N1c2ccccc2Sc2ccc(Cl)cc21 (stereo not drawn) end up with in this test?
# output N

---

Experiment: qHTS RealTime-Glo MT Cell Viability Assay in HepG2 cells - 8 hour (AID 1224873); further: on the % scale 0 is the no-effect control and ±100 the full control effect; nearly all actives have a fitted effect of over 55% in size
Conditions: RealTime-Glo luminescence; series mostly up to 76.8 µM
Results filed as inconclusive are left out. Active and inactive are the calls of the source. The call rests on the fitted dose curve; in most records, active means well fitted cell-killing curve with a large enough effect in the repeat runs; inconclusive means weak or mixed curves; inactive means flat fitted curve, though single readings scatter.
reported_property: viability change, negative = cytotoxic

These recorded examples may help you get a feel for the data.
CN(c1nccc(=O)[nH]1)C1CCN(c2nc3ccccc3n2Cc2ccc(F)cc2)CC1
inactive
O=C1Nc2cc(Cl)ccc2Oc2ccccc21
inactive
OCC1CC2CC1C1CCC(CO)C21 (stereo unspecified)
inactive
CNCC[C@@H](Oc1ccccc1C)c1ccccc1
inactive
C[C@H](CCC(=O)O)[C@H]1CC[C@H]2[C@@H]3[C@H](O)C[C@@H]4C[C@H](O)CC[C@]4(C)[C@H]3CC[C@]12C
inactive
Cn1sccc1=O
inactive
CC[C@H](C)[C@@H](C(=O)O)n1sc2ccccc2c1=O
inactive
C#CCOC(=O)[C@@H](C)Oc1ccc(Oc2ncc(Cl)cc2F)cc1
inactive

Switching to the query record.
# input Given C=Cc1c(C)c2cc3[nH]c(cc4nc(cc5nc(cc1[nH]2)C(C)=C5CCC(=O)O)C(CCC(=O)O)=C4C)c(C)c3C=C , state its recorded viability change, negative = cytotoxic.
# output inactive

---

Experiment: qHTS assay to identify small molecule antagonists of the estrogen receptor alpha (ER-alpha) signaling pathway using the BG1 cell line - cell viability counter screen (AID 743081);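 further: compound given together with 17beta-estradiol as the ER stimulus; on the % scale 0 is the no-effect control and ±100 the full control effect; nearly all actives have a fitted effect of over 45% in size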
Conditions: BG1Luc4E2 viability, CellTiter-Fluor, 22 h; series mostly up to 70.3 µM
Records with an inconclusive call do not appear. The source made the active and inactive calls. The call rests on the fitted dose curve; in most records, active means well fitted cell-killing curve with a large enough effect in the repeat runs; inconclusive means weak or mixed curves, or effect the other way; inactive means flat fitted curve, though single readings scatter.
Your answer must be one of the following: yes (1) (active), no (0) (inactive)

Field: example entries. Status: answers known.
NC[C@H]1O[C@H](O[C@H]2[C@H](O)[C@@H](O[C@H]3O[C@H](CO)[C@@H](O)[C@H](N)[C@H]3O)[C@H](N)C[C@@H]2N)[C@H](O)[C@@H](O)[C@@H]1O
no (0)
CC(C)CC=O
no (0)
NCc1ccccc1
no (0)
SC1CCCC1
no (0)
CC(=O)OCCc1ccccc1
no (0)
O=C(O)C1CCC(C(=O)O)CC1 (stereo not drawn)
no (0)
COc1ccccc1OC(=O)Oc1ccccc1OC
no (0)
CC(=O)SCc1ccco1
no (0)
O=C(O)c1cccc(N(Cc2cccnc2)c2ccc(OC(F)F)c(OC(F)F)c2)c1
no (0)
CCN(CC)CCOC(=O)C1(c2ccccc2)CCCC1
no (0)

# input What classification did C[C@H](CCC(=O)O)[C@H]1CC[C@H]2[C@@H]3[C@H](O)C[C@@H]4C[C@H](O)CC[C@]4(C)[C@H]3CC[C@]12C end up with in this test?
# output no (0)

# input What classification did CCCCOC(=O)c1ccccc1C(=O)OCC(CC)CCCC (stereo not drawn) end up with in this test?
# output no (0)

---

Biological target: Estrogen receptor beta (Homo sapiens) (UniProt Q92731)
Sequence (Q92731 whole entry, looked up): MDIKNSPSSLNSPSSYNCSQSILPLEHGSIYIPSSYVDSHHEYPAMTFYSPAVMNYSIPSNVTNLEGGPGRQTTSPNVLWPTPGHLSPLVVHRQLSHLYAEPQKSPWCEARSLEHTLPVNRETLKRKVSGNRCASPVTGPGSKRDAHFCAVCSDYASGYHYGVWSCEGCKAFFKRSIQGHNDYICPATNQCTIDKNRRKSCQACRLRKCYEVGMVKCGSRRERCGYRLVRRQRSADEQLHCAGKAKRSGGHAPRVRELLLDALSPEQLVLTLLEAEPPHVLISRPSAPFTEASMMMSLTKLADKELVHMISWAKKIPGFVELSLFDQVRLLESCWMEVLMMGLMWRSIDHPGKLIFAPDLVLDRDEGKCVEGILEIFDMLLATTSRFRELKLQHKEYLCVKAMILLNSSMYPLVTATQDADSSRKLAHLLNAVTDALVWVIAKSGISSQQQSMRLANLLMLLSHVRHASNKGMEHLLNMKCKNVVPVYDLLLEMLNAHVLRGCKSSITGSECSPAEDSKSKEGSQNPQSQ
Test: qHTS assay to identify small molecule agonists of the estrogen receptor beta (ER-beta) signaling pathway (AID 1259377); further: on the % scale 0 is the no-effect control and ±100 the full control effect
Details: ER-beta-UAS-bla HEK293T, beta-lactamase FRET ratio, 16 h; series mostly up to 92.4 µM
Text: U.S. Tox21 Program National Center for Advancing Translational Sciences [NCATS] NIH Chemical Genomics Center [NCGC] U.S. Environmental Protection Agency [EPA] National Institutes of Environmental Health Sciences [NIEHS] National Toxicology Program [NTP] U.S. Food and Drug Administration [FDA] Tox21 Assay Overview: Estrogen receptor (ER), a nuclear hormone receptor, plays an important role in development, metabolic homeostasis and reproduction. […]
Results filed as inconclusive are left out. The source made the active and inactive calls. The call rests on the fitted dose curve; in most records, active means well fitted activation curve with a large enough effect in the signal ratio in the repeat runs (not every such curve was filed as active); inconclusive means weak or mixed curves, or effect the other way; inactive means flat fitted curve, though single readings scatter; the % refers to the signal ratio.
reported_property: outcome

These recorded examples may help you get a feel for the data.
Nc1cnn([C@@H]2O[C@H](CO)[C@@H](O)[C@H]2O)c(=O)n1
inactive
CCCCCCCCCCCCCCC1CO1 (stereo not drawn)
inactive
Cc1cccc(C(C)(C)C)c1O
inactive
CCN(CC)CCOC(=O)C1(c2ccccc2)CCCC1
inactive
O=[N+]([O-])c1cccc(Cl)c1Cl
inactive
O=C(/C=C/c1ccc(O)c(O)c1)O[C@@H]1C[C@](O)(C(=O)O)C[C@@H](O)[C@H]1O
inactive
O=c1c2ccccc2nnn1CCl
inactive
CCCCCCCCCO
inactive

# input Given c1ccc(-c2nc[nH]c2-c2ccccc2)cc1 , state its recorded outcome.
# output inactive
